B1: CLK3 (parent)
chain: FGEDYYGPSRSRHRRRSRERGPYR

# Variants of: B1
# method_summary: protein stability index of a GFP-peptide fusion (GPS, HEK-293T) (PSI 1-6); higher = more stable;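 also: lentivirally expressed fusions sorted by FACS into six bins by GFP to DsRed ratio, PSI derived from sequencing read proportions per bin multiplied by bin number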
# reported_conditions: c terminus: a fixed tail appended
attribute_measured: protein stability index
Quick one: just the number, no unit, thanks!

Use the examples below as a reference point.
sequence_variant	attribute_measured	data_value
S17H	protein stability index	3.52
R12P	protein stability index	2.39
Y5S	protein stability index	3.8
P8R	protein stability index	1.44
F1N	protein stability index	4.44

Sample "S11K" — what was its protein stability index?
3.18

Also, "R10V" please.
2.52

Similarly, "R18A" ?
2.06

Param item: "R15H"
2.18

One more variant: "Y6H"
4.07
